- System: Methicillin-resistant S. epidermidis (MRSE, RP62A)
- methodDescription: MIC against MRSE
- Format: cell-based
- details: Staphylococcus epidermidis, MRSE; Gram +; 16 h, 37° C.
measurementKind: MIC (µg/mL)

{"molSmiles": "CCCCCCN1C(=N)N(CC(=O)Nc2ccc(NC(=O)CN3C[C@H](Cc4ccccc4)N(CCCCCC)C3=N)cc2)C[C@@H]1Cc1ccccc1", "MIC [µg/mL]": 0.75}
{"molSmiles": "CCCCCCN1C(=N)N(CC(=O)NCCCCCCCCNC(=O)CN2C[C@H](Cc3ccccc3)N(CCCCCC)C2=N)C[C@@H]1Cc1ccccc1", "MIC [µg/mL]": 1.5}

A: CCCCCCN1C(=N)N(CC(=O)Nc2cccc(NC(=O)CN3C[C@H](CC(C)C)N(CCCCCC)C3=N)c2)C[C@@H]1CC(C)C
B: CCCCCCN1C(=N)N(CC(=O)NCCCCCCNC(=O)CN2C[C@H](Cc3ccccc3)N(CCCCCC)C2=N)C[C@@H]1Cc1ccccc1
Prompt line: Which of these two has the smaller recorded MIC: A or B ? Write the label of whichever entry you select.
Response line: B
(B: 0.75 µg/mL, A: 1.5 µg/mL)

I: N=C1N(CC(=O)Nc2ccc(NC(=O)CN3C[C@H](Cc4ccccc4)N(CCCC4CCCCC4)C3=N)cc2)C[C@H](Cc2ccccc2)N1CCCC1CCCCC1
II: CCCCCCN1C(=N)N(CC(=O)NCCCCNC(=O)CN2C[C@H](Cc3ccccc3)N(CCCCCC)C2=N)C[C@@H]1Cc1ccccc1
Prompt line: Which of these two has the smaller recorded MIC: I or II ? Write the label of whichever entry you select.
Response line: I
(I: 0.33 µg/mL, II: 1.5 µg/mL)

----------
- System: K. pneumoniae (ATCC 13383)
measurementKind: MIC

Worked set:
{"compound": "CCN1C(=N)N(CC(=O)Nc2ccc(NC(=O)CN3C[C@H](Cc4ccccc4)N(CC)C3=N)cc2)C[C@@H]1Cc1ccccc1 [Compound 3]", "targetSystem": "K. pneumoniae (ATCC 13383)", "MIC": "> 25 µg/mL"}
{"compound": "N=C1N(CC(=O)NCCCCCCNC(=O)CN2C[C@H](Cc3ccccc3)N(CCCc3ccccc3)C2=N)C[C@H](Cc2ccccc2)N1CCCc1ccccc1 [Compound 9]", "targetSystem": "K. pneumoniae (ATCC 13383)", "MIC": "3 to 6 µg/mL"}

Shifting focus to the compound that follows.
Prompt line: Please report MIC for the following compound: CCCCCCN1C(=N)N(CC(=O)Nc2cccc(NC(=O)CN3C[C@H](CC(C)C)N(CCCCCC)C3=N)c2)C[C@@H]1CC(C)C [Compound 23]
Response line: 0.75 µg/mL

----------
Below, each entry is listed alongside its reported Hemolysis (HC50).
- Tested on: human red blood cells (hRBCs)
- methodDescription: Hemolytic assay
- Format: cell-based
- details: concentration causing 50% hemolysis; hRBCs, 37° C., 1 h
Number in µg/mL, nothing else.

Worked set:
{"molSmiles": "N=C1N(CC(=O)Nc2cccc(NC(=O)CN3C[C@H](Cc4ccccc4)N(CCCC4CCCCC4)C3=N)c2)C[C@H](Cc2ccccc2)N1CCCC1CCCCC1", "Hemolysis (HC50) (µg/mL)": 26}
{"molSmiles": "CCCCCCN1C(=N)N(CC(=O)Nc2cccc(NC(=O)CN3C[C@H](CC(C)C)N(CCCCCC)C3=N)c2)C[C@@H]1CC(C)C", "Hemolysis (HC50) (µg/mL)": 200}

Shifting focus to the compound that follows.
Prompt line: Please report Hemolysis (HC50) for the following compound: N=C1N(CC(=O)NCCCCCCNC(=O)CN2C[C@H](Cc3ccccc3)N(CCCc3ccccc3)C2=N)C[C@H](Cc2ccccc2)N1CCCc1ccccc1
Response line: 100

----------
- Test system: K. pneumoniae (ATCC 13383)
Below, each entry is listed alongside its reported MIC.

{"molSmiles": "CCCCCCN1C(=N)N(CC(=O)NCCCCCCNC(=O)CN2C[C@H](Cc3ccccc3)N(CCCCCC)C2=N)C[C@@H]1Cc1ccccc1", "targetSystem": "K. pneumoniae (ATCC 13383)", "testResult": "3 to 6 µg/mL"}
{"molSmiles": "CCCCCCN1C(=N)N(CC(=O)Nc2ccc(NC(=O)CN3C[C@H](Cc4ccccc4)N(CCCCCC)C3=N)cc2)C[C@@H]1Cc1ccccc1", "targetSystem": "K. pneumoniae (ATCC 13383)", "testResult": "1.5 µg/mL"}
{"molSmiles": "N=C1N(CC(=O)Nc2ccc(NC(=O)CN3C[C@H](Cc4ccccc4)N(CCCC4CCCCC4)C3=N)cc2)C[C@H](Cc2ccccc2)N1CCCC1CCCCC1", "targetSystem": "K. pneumoniae (ATCC 13383)", "testResult": "1.5 to 3 µg/mL"}

Prompt line: Please report MIC for the following molecule: N=C1N(CC(=O)Nc2ccc(NC(=O)CN3C[C@H](Cc4ccccc4)N(CCCc4ccccc4)C3=N)cc2)C[C@H](Cc2ccccc2)N1CCCc1ccccc1
Response line: 1.5 to 3 µg/mL

Prompt line: Please report MIC for the following molecule: CCCCCCN1C(=N)N(CC(=O)NCCCCCCCCNC(=O)CN2C[C@H](Cc3ccccc3)N(CCCCCC)C2=N)C[C@@H]1Cc1ccccc1
Response line: 1.5 to 3 µg/mL

Prompt line: Please report MIC for the following molecule: N=C1N(CC(=O)Nc2cccc(NC(=O)CN3C[C@H](Cc4ccccc4)N(CCCc4ccccc4)C3=N)c2)C[C@H](Cc2ccccc2)N1CCCc1ccccc1
Response line: 3 µg/mL

----------
- Tested on: Methicillin-resistant S. epidermidis (MRSE, RP62A)
- methodDescription: MIC against MRSE
- Type: cell-based
- details: Staphylococcus epidermidis, MRSE; Gram +; 16 h, 37° C.
measurementKind: MIC

Worked set:
{"molSmiles": "N=C1N(CC(=O)Nc2cccc(NC(=O)CN3C[C@H](Cc4ccccc4)N(CCCc4ccccc4)C3=N)c2)C[C@H](Cc2ccccc2)N1CCCc1ccccc1", "MIC": "1.5 µg/mL"}
{"molSmiles": "CCN1C(=N)N(CC(=O)Nc2cccc(NC(=O)CN3C[C@H](Cc4ccccc4)N(CC)C3=N)c2)C[C@@H]1Cc1ccccc1", "MIC": "> 25 µg/mL"}

Prompt line: Please report MIC for the following molecule: N=C1N(CC(=O)NCCCCCCNC(=O)CN2C[C@H](Cc3ccccc3)N(CCCc3ccccc3)C2=N)C[C@H](Cc2ccccc2)N1CCCc1ccccc1
Response line: 0.75 to 1.5 µg/mL

----------
- System: human red blood cells (hRBCs)
- methodDescription: Hemolytic assay
- Assay type: cell-based
- details: concentration causing 50% hemolysis; hRBCs, 37° C., 1 h
Below, each entry is listed alongside its reported Hemolysis (HC50).

Worked set:
{"molSmiles": "N=C1N(CC(=O)Nc2cccc(NC(=O)CN3C[C@H](Cc4ccccc4)N(CCCc4ccccc4)C3=N)c2)C[C@H](Cc2ccccc2)N1CCCc1ccccc1", "Hemolysis (HC50)": ">250 µg/mL"}
{"molSmiles": "CCCCCCN1C(=N)N(CC(=O)NCCCCCCNC(=O)CN2C[C@H](Cc3ccccc3)N(CCCCCC)C2=N)C[C@@H]1Cc1ccccc1", "Hemolysis (HC50)": ">250 µg/mL"}

Shifting focus to the compound that follows.
Prompt line: Please report Hemolysis (HC50) for the following compound: CCCCCCN1C(=N)N(CC(=O)NCCCCCCCCNC(=O)CN2C[C@H](Cc3ccccc3)N(CCCCCC)C2=N)C[C@@H]1Cc1ccccc1
Response line: >250 µg/mL
